src = patent US20250340659A1

assay.target: T1, canine OX40L, full length membrane form, expressed on HEK293 cells (canine)
T1 chain: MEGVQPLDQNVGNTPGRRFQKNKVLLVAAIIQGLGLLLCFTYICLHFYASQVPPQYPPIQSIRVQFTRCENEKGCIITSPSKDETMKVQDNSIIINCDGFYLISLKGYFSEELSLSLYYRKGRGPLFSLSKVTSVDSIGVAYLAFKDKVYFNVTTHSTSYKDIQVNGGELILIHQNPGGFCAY
experimental.protocol: cell-based or functional assay
% Signal Inhibition Rep3 values for the binders below.
Dear colleague, please return just the value in %, with no unit written.

binder | reported
PMX100 (antibody, V domains shown) VH: EVQLVESGGDLVRPGGSLRLSCVASGFTFSSYHMSWVRQAPGKGLQWVAFINSGGSSTTYADVVRGRFTISRDYAKNTLYLQMNSLRAEDTAVYYCASGSIWTHFDYWGQGTLVTVSS VL: SFVLTQLPSVSVTLRQTARITCGGDSIGSKSVYWYQQRLGQAPVLIIYRDSNRPTGIPERFSGASSGNTATLTISGALAEDEADYYCQVWDNSNKAMFGGGTHLTVL | 19.9

Kindly consider the entry below.
Item: PMX047 (antibody, V domains shown, also called PMX47) VH: EVQLVESGGDLVKPGGSLRLSCVASGFIFSSYSMSWVRQAPEKGLQLVAGINSAGSSTYYTDAVKGRFTISRDNAKNTVYLQMNSLRAEDTAIYYCAKRWVFDFWGQGTLVTVSS VL: HIVMTQTPLSLSVSPGEPASISCKASQSLLLSYGNTYLYWFRQKPGQSPQRLIYKVSNRDPGVPDRFSGSGSGTDFTLRISRVEADDAGVYYCGQGIQDPFTFGQGTKLEIK | % Signal Inhibition Rep3: 62.3
